Experiment: Fluorescence excitation and emission spectra in solvents of different polarity
Format: physicochemical
Details: PBS (pH 7.4), 10 μM
Parameter: λem. Scope: all listed entries.

[
  {
    "compound": "O=c1[nH]c(=S)n(CCNc2ccc([N+](=O)[O-])c3nonc23)c2nc[nH]c12",
    "units": "nm",
    "λem": 558
  },
  {
    "compound": "CN(C)S(=O)(=O)c1ccc(NCCOCCn2c(=S)[nH]c(=O)c3[nH]cnc32)c2nonc12",
    "units": "nm",
    "λem": 600
  },
  {
    "compound": "CN(C)c1ccc2c3c(cccc13)C(=O)N(CCn1c(=S)[nH]c(=O)c3[nH]cnc31)C2=O",
    "units": "nm",
    "λem": 560
  },
  {
    "compound": "CN(C)S(=O)(=O)c1ccc(NCCn2c(=S)[nH]c(=O)c3[nH]cnc32)c2nonc12",
    "units": "nm",
    "λem": 600
  },
  {
    "compound": "O=c1[nH]c(=S)n(CCOCCNc2ccc([N+](=O)[O-])c3nonc23)c2nc[nH]c12",
    "units": "nm",
    "λem": 558
  },
  {
    "compound": "CN(C)c1ccc2c3c(cccc13)C(=O)N(CCOCCn1c(=S)[nH]c(=O)c3[nH]cnc31)C2=O",
    "units": "nm",
    "λem": 560
  }
]

---

Parameter: pIC50. Scope: all listed entries.
Biological target: UniProtKB P05164
Sequence (P05164 49-745): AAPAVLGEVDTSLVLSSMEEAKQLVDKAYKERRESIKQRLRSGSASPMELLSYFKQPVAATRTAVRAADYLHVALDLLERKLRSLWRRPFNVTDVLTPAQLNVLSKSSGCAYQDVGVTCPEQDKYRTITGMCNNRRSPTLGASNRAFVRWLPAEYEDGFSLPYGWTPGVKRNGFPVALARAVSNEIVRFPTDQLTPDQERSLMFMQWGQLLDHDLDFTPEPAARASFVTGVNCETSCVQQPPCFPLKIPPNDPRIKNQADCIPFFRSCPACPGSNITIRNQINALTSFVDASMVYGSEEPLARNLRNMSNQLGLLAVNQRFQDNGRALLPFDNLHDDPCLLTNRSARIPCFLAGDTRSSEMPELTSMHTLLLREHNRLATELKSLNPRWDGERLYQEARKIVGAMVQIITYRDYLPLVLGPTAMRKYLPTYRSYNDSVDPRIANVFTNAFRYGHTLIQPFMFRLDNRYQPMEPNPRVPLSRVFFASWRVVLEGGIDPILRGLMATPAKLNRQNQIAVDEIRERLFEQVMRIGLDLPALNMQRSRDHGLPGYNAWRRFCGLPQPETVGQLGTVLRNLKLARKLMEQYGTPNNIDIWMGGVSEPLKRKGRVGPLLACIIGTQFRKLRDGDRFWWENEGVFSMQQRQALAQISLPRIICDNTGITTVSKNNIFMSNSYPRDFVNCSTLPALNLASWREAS
pIC50: −log10 of the molar value.
quantity: pIC50

[
  {
    "compound": "CN(C)S(=O)(=O)c1ccc(NCCn2c(=S)[nH]c(=O)c3[nH]cnc32)c2nonc12 [Probe 3]",
    "readoutValue": 5.34
  },
  {
    "compound": "O=c1[nH]c(=S)n(CCOCCNc2ccc([N+](=O)[O-])c3nonc23)c2nc[nH]c12 [Probe 6]",
    "readoutValue": 6.41
  },
  {
    "compound": "CN(C)S(=O)(=O)c1ccc(NCCOCCn2c(=S)[nH]c(=O)c3[nH]cnc32)c2nonc12 [Probe 4]",
    "readoutValue": 5.96
  },
  {
    "compound": "CN(C)c1ccc2c3c(cccc13)C(=O)N(CCOCCn1c(=S)[nH]c(=O)c3[nH]cnc31)C2=O [Probe 2]",
    "readoutValue": 6.32
  },
  {
    "compound": "O=c1[nH]c(=S)n(CCNc2ccc([N+](=O)[O-])c3nonc23)c2nc[nH]c12 [Probe 5]",
    "readoutValue": 6.30
  }
]

---

Tested on: MPO activity in human polymorphonuclear neutrophils (hPMN)
Test: Wash-free live-cell imaging of probes in hPMN during NETosis
Format: cell-based
Details: 100 nM PMA, probe near IC50, 3 h, 37 °C, whole images

[
  {
    "compound": "CN(C)c1ccc2c3c(cccc13)C(=O)N(CCn1c(=S)[nH]c(=O)c3[nH]cnc31)C2=O",
    "qualifierSign": "=",
    "MFI (mean fluorescence intensity) (gray values)": 6.9
  },
  {
    "compound": "CN(C)c1ccc2c3c(cccc13)C(=O)N(CCOCCn1c(=S)[nH]c(=O)c3[nH]cnc31)C2=O",
    "qualifierSign": "=",
    "MFI (mean fluorescence intensity) (gray values)": 3.0
  },
  {
    "compound": "CN(C)S(=O)(=O)c1ccc(NCCOCCn2c(=S)[nH]c(=O)c3[nH]cnc32)c2nonc12",
    "qualifierSign": "=",
    "MFI (mean fluorescence intensity) (gray values)": 1.8
  },
  {
    "compound": "O=c1[nH]c(=S)n(CCOCCNc2ccc([N+](=O)[O-])c3nonc23)c2nc[nH]c12",
    "qualifierSign": "<",
    "MFI (mean fluorescence intensity) (gray values)": 0.1
  },
  {
    "compound": "CN(C)S(=O)(=O)c1ccc(NCCn2c(=S)[nH]c(=O)c3[nH]cnc32)c2nonc12",
    "qualifierSign": "=",
    "MFI (mean fluorescence intensity) (gray values)": 1.5
  },
  {
    "compound": "O=c1[nH]c(=S)n(CCNc2ccc([N+](=O)[O-])c3nonc23)c2nc[nH]c12",
    "qualifierSign": "<",
    "MFI (mean fluorescence intensity) (gray values)": 0.1
  }
]

From: paper PMC11557929
